Experiment: protein stability index of a GFP-peptide fusion (yeast GPS) (PSI 1-4); higher = more stable; sorted into four equal gates, so the index is relative within each strain
Settings: ubr1∆
Threshold check on protein stability index: at or above 3 gives Criterion met, strictly below gives Criterion not met.

Evaluate MQFAKSKTVKVLKTLIE [RPN6] : protein stability index at minimum 3?
Criterion not met

Evaluate SLNTKKNEKLILEESLN [SMC3] : protein stability index at minimum 3?
Criterion not met

Evaluate QGIFKNSSNYFGELQFA [AAR2] : protein stability index at minimum 3?
Criterion not met

Evaluate EFESELKNVEETQEIKE [ESC2] : protein stability index at minimum 3?
Criterion met

Evaluate GDFGGWFCPCHGSHYDI [RIP1] : protein stability index at minimum 3?
Criterion met

Evaluate SPTPIQRITIPNVCNMK [PRP28] : protein stability index at minimum 3?
Criterion not met

Evaluate RRRREGKTDYYQRKRLV [RPL5] : protein stability index at minimum 3?
Criterion met

Evaluate DIGSDPTLPRSDRECPK [RPB9] : protein stability index at minimum 3?
Criterion met

Evaluate HLCSGILSSVNRTVLLK [SRB8] : protein stability index at minimum 3?
Criterion not met

Evaluate FNYVQECPAIPIFNYIF [YJL039C/NUP192] : protein stability index at minimum 3?
Criterion not met

Evaluate PTQTVAELDLMSGILHC [RPN6] : protein stability index at minimum 3?
Criterion met

Evaluate GVARIYASFNDTFVHVT [RPS14B] : protein stability index at minimum 3?
Criterion not met

====

Assay: protein stability index of a GFP-peptide fusion (yeast GPS) (PSI 1-4); higher = more stable; sorted into four equal gates, so the index is relative within each strain
Conditions: doa10∆
Threshold check on protein stability index: at or above 2 gives Met, strictly below gives Not met.

Evaluate IHALAAKLLQENDTTLV [FAS1] : protein stability index at minimum 2?
Met

Evaluate DFYTRHHFTCEITGTSC [ITC1] : protein stability index at minimum 2?
Not met

Evaluate PSSQSQNDTPMFKLGNF [YLR018C/POM34] : protein stability index at minimum 2?
Met

Evaluate KIVYIAPLKALVQEQVR [BRR2] : protein stability index at minimum 2?
Not met

Evaluate NATANATANATANATAE [SNF11] : protein stability index at minimum 2?
Met

Evaluate EQHHINNLKNSGNSANN [GAL11] : protein stability index at minimum 2?
Met

Evaluate IDSTDHIRKASSKKSKR [LRP1] : protein stability index at minimum 2?
Met

====

Would you kindly list protein stability index for each of these sequences?
Experiment: protein stability index of a GFP-peptide fusion (yeast GPS) (PSI 1-4); higher = more stable; sorted into four equal gates, so the index is relative within each strain
Conditions: ubr1∆
Give only the figure.

protein stability index for TKLIISGQLNFEIDGDV [PCI8] ?
2.23

protein stability index for NNRQLPYLVANVVEVMD [RPT5] ?
2.71

protein stability index for KPKAVARKSKEEREAAA [RPC53] ?
2.64

protein stability index for VNTMGTGGQTIDNGTGR [MED6] ?
3.19

protein stability index for EIESIDKLPQFVDENTF [RPN1] ?
3.32

protein stability index for EWVKLHRLLQRALFRQL [RMP1] ?
2.16

protein stability index for QRILEVLGTPDQKIWPY [SSN3] ?
1.6

protein stability index for IQNQSPQFNSPYDSNNS [SWI1] ?
2.82

protein stability index for NKLVMKSKFNKSNRSYS [GAL11] ?
3.01

protein stability index for SHKTTKEDTVSWFKQKY [RPL11A] ?
1.53

protein stability index for YGNRAEQFLETDSDFAK [SRP68] ?
3.23

protein stability index for NNPLLLIVDVKQQGVGL [RPN8] ?
2.15

protein stability index for TGYPDEPPAGVALPPGS [CYT1] ?
2.95

protein stability index for VSKEQFLKDADVECIKA [YJL039C/NUP192] ?
1.89

protein stability index for PPPGLDELETKAEKKVE [PRP8] ?
3.08

protein stability index for KAKYNTPKYRLVVRFTN [RPL5] ?
1.12

protein stability index for QNIMTLPDGKNGNLEEE [MED6] ?
3.31

protein stability index for LPLNKPRLEKLINEILL [RGR1] ?
2.48

protein stability index for LTEAVEDGPRPFKVFLD [RPL5] ?
3.23

protein stability index for QIEKKEIKKMIITNINA [YCG1] ?
2.47

protein stability index for FITRLAQGLLHLGKGTM [RPN1] ?
2.23

protein stability index for NFARQLLFNNDFPLLKV [RRP40] ?
2.12

protein stability index for AKEVKVLYHTSGAITFV [PRP8] ?
2.72

protein stability index for LGKFKNIIASPLSAGFN [SIN4] ?
2.04

protein stability index for KIREDHINKIPSNSTTT [SRB8] ?
2.81

protein stability index for AKEKERMLEEAIDHLKA [YIL149C/MLP2] ?
3.01

protein stability index for YYNPQAGTKITICIELK [RGR1] ?
2.48

protein stability index for QQQQAAALANANNNINS [SWI1] ?
2.65

protein stability index for CISLGSTKLSRPFDSFG [ITC1] ?
3.01

protein stability index for KRSQKKHKKKHLKHENA [RPB4] ?
3.25

protein stability index for CSHIFTSDQKNKRTQFS [RPB9] ?
2.53

protein stability index for ERLMSRPFGVALLIAGH [PUP2] ?
2.95

protein stability index for SSFKKNLLKFITSNHKS [RPN3] ?
1.83

protein stability index for EGPKKCIQVNCLNCEKS [SNM1] ?
2.22

protein stability index for GIEHFDIPPPAIMKPYY [RPO31] ?
2.91

protein stability index for WPQSKNCEYEDPPNEGD [RPB3] ?
3.2

protein stability index for LEIASSIDCLLILILVI [SWI1] ?
1.71

protein stability index for LDIKRVGSENVECTISI [SNF12] ?
2.81

protein stability index for VSLCAKNMGLVPMKEEN [SSN2] ?
2.26

protein stability index for SNILLNSLTKYPDLKAF [MED1] ?
1.71

protein stability index for LYDALEPSDLRSWTLTS [YGL100W/SEH1] ?
3.03

protein stability index for QAAGGLSIRLTNQLKSL [RPN8] ?
2.19

protein stability index for SESKQLGNTSSVANTPS [SWI3] ?
2.94

protein stability index for YLGTKVELPYGAHGYSG [PRE1] ?
2.96

protein stability index for IHFREHQSELIIKQTVH [YMR129W/POM152] ?
2.21

protein stability index for PIPSSETKADGILLETI [RRP6] ?
2.53

protein stability index for SVYGLDDISRQVARTNL [ROX3] ?
2.94

protein stability index for LREFRITHNTNITDNLF [GRR1] ?
2.07

protein stability index for VDVLVISSHSHPVSLIS [RRP42] ?
1.67

protein stability index for SQSSAAAGASVDDKRRN [RPN6] ?
3.25

protein stability index for LTNGVTEHVRQNAKLLA [RRP6] ?
1.59

protein stability index for VTHMDQIFVRGSQIKFI [SMD3] ?
2.04

protein stability index for NLDGTKAVKLRKSYKNQ [ROX3] ?
3.58

protein stability index for KTLTEEVTKSSHVENLE [YIL149C/MLP2] ?
3.13

protein stability index for VRSFSKALDELKPEIEK [LRP1] ?
3.22

protein stability index for NHTAHNQTRKAHRNGIK [RPL29] ?
2.57

protein stability index for PEETPLEELAETFQDTF [FAS2] ?
3.32

protein stability index for KLEEESKRGNDKKHFNN [RPC53] ?
3.28

protein stability index for DLQRTQTLSEKEYQCSA [YIL149C/MLP2] ?
2.96

protein stability index for LGDKELWPVAIGLIALS [YJR042W/NUP85] ?
1.73

Reference source: the supplement of paper PMC9732359
